- system tested: HLA-B*3501 (human), P01889
- assay summary: competition, FACS 4C
- experimental conditions: modification not given
Exercise: for every item that follows, state its recorded IC50.

# binder, IC50
measured = [
    ("LPRELFPPL [PRAME 48-56]", "< 1000 nM"),
    ("LPTLAKFSPY [PRAME 246-255]", "< 1000 nM"),
]

Query binder follows.
# lookup: IC50 of FPPLFMAAF [PRAME 53-61]
< 1000 nM
